- System: NCI-H460 lung
- Test Description: NCI-60 one-dose screen, 48 h
- Assay Setup: 10 µM unless noted
This is part of a sample that, as a whole, favours compounds with a hit. Of some 83,000 tested, about 20% had one in any assay. Active and inactive are the calls of the source. Rule for the calls: active = growth percent below 10; inactive = the rest.
Parameter call: string, one of active, inactive

Example results:
INSERT INTO measurements (compound, tested_system, classification) VALUES
  ('CN=C1C=C/C(=N/N=c2/ccn(O)cc2C)C=C1C', 'NCI-H460 lung', 'inactive'),
  ('C/C(=N\OC(=O)Nc1cccc(Cl)c1)c1ccccc1', 'NCI-H460 lung', 'inactive'),
  ('O=C(Nc1ccc2[nH]c3ccccc3c2c1)c1ccccc1Cl', 'NCI-H460 lung', 'inactive'),
  ('COc1ccc(/C=C/C(=O)c2ccc(NC(=O)CSc3nnc(-c4ccc(OC)cc4)n3-c3ccccc3)cc2)cc1', 'NCI-H460 lung', 'inactive'),
  ('CCN(CC)CCNc1c(C)cc(CO)c(Cl)c1C', 'NCI-H460 lung', 'inactive'),
  ('N#CC1=C(N)Oc2nc[nH]c(=O)c2C1c1cccs1 (centres undefined)', 'NCI-H460 lung', 'inactive'),
  ('Cc1nn(-c2ccc(Cl)cc2)c(=O)n1CCN1CCOCC1', 'NCI-H460 lung', 'inactive'),
  ('C1=C\CCCCN2CC[C@H]3[C@H](CCCC/C=C\CCCN4C[C@@H](CCCCC/1)C[C@@H]3C4)C2', 'NCI-H460 lung', 'inactive');

Task: Per the assay record, what outcome was assigned to COc1c(B(O)O)cccc1-c1nc2c(F)cc3n[nH]c(C)c3c2c2c1CCCC2 ?
Result: inactive

====

- Test system: UACC-62 melanoma
- Test Description: NCI-60 one-dose screen, 48 h (100 = growth as untreated, 0 = no growth, -100 = all killed)
- Assay Setup: 10 µM unless noted
Compounds without any hit were thinned out: in the full panel of roughly 83,000, 20% have a hit.
Readout Name: growth (%)
I only need the number, in %, no unit after it.

The examples below pair each entry with its known result.
INSERT INTO assay_data (compound, readout_name, value_measured) VALUES
  ('CC1=NOCC(=O)N1', 'growth', 102),
  ('O=C(Nc1ccc(Oc2ccc(NC(=O)Nc3ccccc3Cl)cc2)cc1)Nc1ccccc1Cl', 'growth', 45.9),
  ('CCCCn1c(-c2ccc(F)cc2)nc2cc(OC)c(OC)cc2c1=O', 'growth', 81.8),
  ('COc1cc(-c2nc(-c3nc4cc(C(=O)c5ccccc5)ccc4[nH]3)cc3c2[nH]c2ccccc23)cc(OC)c1OC', 'growth', 76);

Task: Complete the entry with growth for COc1ccc(-c2oc(=O)ccc2-c2cc(OC)c(OC)c(OC)c2)cc1F
Result: 53.6

Task: Complete the entry with growth for c1ccc2c(c1)cnc1ccccc12
Result: 98.9

Task: Complete the entry with growth for Cc1ccc(S(=O)(=O)NC(CCC(=O)Nc2ccc(Cl)cc2)C(=O)Nc2ccc(Cl)cc2)cc1 (centres undefined)
Result: 2.47

Task: Complete the entry with growth for O=C(Nc1cccc(Cl)c1)Nc1cc(C(F)(F)F)ccc1Cl
Result: -8.9

Task: Complete the entry with growth for C#CC[C@@H]1C[C@]2(C)[C@H]3CC=C4[C@H]5[C@@H](C)[C@H](C)CC[C@]5(C(=O)NCCCN5CCN(CCCN)CC5)CC[C@@]4(C)[C@]3(C)CC[C@H]2C(C)(C)[C@H]1OC(C)=O
Result: -68.1

Task: Complete the entry with growth for COc1cc(C2CC(c3ccc(Cl)cc3)=NN2C=O)ccc1OS(=O)(=O)c1ccc(C)cc1 (centres undefined)
Result: 78.6

Task: Complete the entry with growth for CN(C)c1ccc(/C=N/Nc2nnc3n2N=C(c2ccc(Cl)cc2)CS3)cc1
Result: 98.6

Task: Complete the entry with growth for Cc1cc(Cl)c2ccc(N(C)C)cc2n1
Result: 101

Task: Complete the entry with growth for COCCCNCC(=O)Nc1c(C)cccc1C
Result: 110

Task: Complete the entry with growth for COC(=O)c1ccc(NC(N)=NCCC(C)(C)c2ccc(C(F)(F)F)cc2)nc1
Result: 55.2

Task: Complete the entry with growth for C=CC[C@]1(O)CC[C@H]2[C@@H]3CCc4cc(O)ccc4[C@H]3CC[C@@]21C
Result: 89.4

Task: Complete the entry with growth for CN(C)c1ccc(/C=C(\C#N)c2nc3ccccc3n2C)cc1
Result: 35

Task: Complete the entry with growth for CCN(CC)CCC(CNc1ccnc2cc(Cl)ccc12)c1ccc(O)cc1 (centres undefined)
Result: 103

Task: Complete the entry with growth for NC(=S)N/N=C(/c1cccs1)C1CC1
Result: 98.8

Task: Complete the entry with growth for Fc1ccc(-c2ccnc3nc(-c4ccncc4)nn23)cc1
Result: 116

====

- Tested on: SNB-75 CNS
- Test Description: NCI-60 one-dose screen, 48 h
- Assay Setup: 10 µM unless noted
About 83,000 compounds went through this panel and 20% of them were active in at least one assay; those are over-represented in the sample as a whole. Activity calls are given as the source filed them. How the source made its calls: active means growth percent below 10; inactive means the rest.
Parameter call: string, one of YES for active, NO for inactive

Example results:
INSERT INTO assay_data (compound, classification) VALUES
  ('COc1cc2c(cc1OC)C(=O)OC2', 'NO'),
  ('C#CCNC(=S)N/N=C(\C)c1ccccn1', 'NO'),
  ('O=C(C(=O)c1cccnc1)c1cccnc1', 'NO'),
  ('CC(=O)c1ccc(Nc2nc(Cl)nc(Oc3c(Cl)cccc3Cl)n2)cc1', 'NO'),
  ('Cc1ccccc1CNc1ncnc2[nH]ncc12', 'NO');

Attention now turns to another entry.
Task: Per the assay record, what outcome was assigned to Fc1[nH]nc2ccc([C@@H]3Nc4ccc5[nH]ncc5c4[C@H]4C5CCC(C5)[C@@H]34)cc12 (stereo partly drawn) ?
Result: YES

====

- Test system: OVCAR-4 ovarian
- Test Description: NCI-60 one-dose screen, 48 h (100 = growth as untreated, 0 = no growth, -100 = all killed)
- Assay Setup: 10 µM unless noted
- Method: Growth inhibition of the OVCAR-4 human tumor cell line is measured as a screen for anti-cancer activity. Cells are grown in 96 well plates and exposed to the test compound for 48 hours. Compounds are tested at a single concentration, which is 10^-5 M for most compounds. The reported endpoint is percent growth (GI% or GIPRCNT), where numbers from 0 - 100% represent growth inhibition, and numbers from -100% - 0 represent cell death. For example, a value of 40 represents 60% growth inhibition. […]
Compounds without any hit were thinned out: in the full panel of roughly 83,000, 20% have a hit. The source made the active and inactive calls. How the source made its calls: active means growth percent below 10; inactive means the rest.
Readout Name: growth

The examples below pair each entry with its known result.
INSERT INTO measurements (compound, value_measured) VALUES
  ('O=C(/C=C/c1ccccc1)C(Br)C(Br)c1ccccc1 (stereo unspecified)', '13% (inactive)'),
  ('O=C1CC2(O)CSc3nc(=O)cc(n32)N1 (stereo unspecified)', '121% (inactive)'),
  ('COC(=O)c1cc2oc(/C=N/NC(=O)c3cc4oc(-c5cccc(C(F)(F)F)c5)cc4[nH]3)cc2n1Cc1ccccc1', '104% (inactive)'),
  ('CN1CCN(Cc2ccc(NC(=O)c3cncc(C#Cc4cnc5cccnn45)c3)cc2C(F)(F)F)CC1', '-21.7% (active)'),
  ('N#Cc1c(N)c(C(=O)c2ccc3c(c2)OCCO3)n2c1CCCC2', '81.2% (inactive)');

Task: Complete the entry with growth for COc1cc(C2C=C(C)N=C3SC=NN32)cc(OC)c1OC (stereo unspecified)
Result: 103% (inactive)

====

- Tested on: NCI-H226 lung
- Test Description: NCI-60 one-dose screen, 48 h (100 = growth as untreated, 0 = no growth, -100 = all killed)
- Assay Setup: 10 µM unless noted
The panel holds about 83,000 compounds, 20% with a hit somewhere; the sample as a whole holds those more often.
Readout Name: growth (%)
I only need the number, in %, no unit after it.

INSERT INTO measurements (compound, readout_unit, value_measured) VALUES
  ('C=CCOc1c(Br)cc(Br)cc1Br', '%', 81.5),
  ('CCCN(CCC)CC(O)COc1ccccc1C(=O)Nc1ccccc1 (stereo not drawn)', '%', 78.9),
  ('O=C(/C=C/c1cccc([N+](=O)[O-])c1)c1ccc(Nc2nc(N3CCCCC3)nc(N3CCCCC3)n2)cc1', '%', 74.2),
  ('COc1ccc(/C(=C\c2ccc3c(c2)OCO3)C(=O)Nc2nc3ccccc3s2)cc1', '%', 97.6),
  ('C/C(=N\NC(=S)Nc1ccccc1)c1ccccn1', '%', 21.3),
  ('COc1ccc(Sc2[nH]c(C=O)c3ccccc23)cc1', '%', 72.5);

Task: Complete the entry with growth for O=C1Cc2c([nH]c3ccc([N+](=O)[O-])cc23)-c2ccccc2N1
Result: 27.1

Task: Complete the entry with growth for CN(C)c1ccc(/C=C(\C#N)c2nc3ccccc3n2C)cc1
Result: 77.8
